assay: Mammalian cell cytotoxicity, colony formation; format: cell-based; details: Chinese hamster, Chinese hamster cells; drug for 3 hours at 37° C., colony formation after 5 days; read-out: 50% Cytotoxic Conc. in CHO cells
Endpoint Label: IC50 at 3 h

Query: Please look up its IC50 at 3 h: CN1CCN(c2c(Br)cc3c4c(cccc24)C(=O)N(O)C3=O)CC1 [Example 50]
Result: 88 µM

Query: Another compound: Nc1cc2c3c(cccc3c1Cl)C(=O)N(O)C2=O [Example 28]
Result: > 250 µM

Query: Likewise for NC1CCN(c2ccc3c4c(cccc24)C(=O)N(O)C3=O)C1 (centres unmarked) [Example 62] ?
Result: 177 µM

Query: Same again, this time with COc1cc2c3c(cccc3c1Br)C(=O)N(O)C2=O [Example 32]
Result: > 250 µM

Query: Moving on to the next compound: Nc1cc2c3c(cccc3c1)C(=O)N(O)C2=O [Example 8]
Result: > 500 µM

Query: CSc1ccc2c3c(cccc13)C(=O)N(O)C2=O [Example 16] , same question.
Result: > 250 µM

Query: How about this compound: COc1cc2c3c(cccc3c1)C(=O)N(O)C2=O [Example 13]
Result: > 250 µM

Query: Proceed to O=C1c2cccc3c(Br)ccc(c23)C(=O)N1O [Example 4]
Result: > 250 µM

----------
Values of MIC reported for B. subtilis RB1 appear below.
Entry rule: numbers only, all in µg/mL.

Query: Requested field: MIC. Item: `CSc1ccc2c3c(cccc13)C(=O)N(O)C2=O`
Result: 2

Query: Same for `Cc1cc2c3c(cccc3c1Br)C(=O)N(O)C2=O`
Result: 0.5

Query: Moving on to the next compound: `COc1cc2c3c(cccc3c1N)C(=O)N(O)C2=O`
Result: 4

Query: Then `CCOc1cc2c3c(cccc3c1)C(=O)N(O)C2=O` ?
Result: 1

Query: `Cc1cc2c3c(cccc3c1)C(=O)N(O)C2=O` ?
Result: 4

----------
Assignment: determine reported pIC50 for the given compounds.
molecular target: E. coli topoisomerase IV (Escherichia coli, UniProt P0AFI2+P20083); construct: made in house; host or cells: E. coli overexpressing strains; assay: Topoisomerase IV k-DNA decatenation assay; assay type: biochemical
Sequence (P0AFI2 whole entry): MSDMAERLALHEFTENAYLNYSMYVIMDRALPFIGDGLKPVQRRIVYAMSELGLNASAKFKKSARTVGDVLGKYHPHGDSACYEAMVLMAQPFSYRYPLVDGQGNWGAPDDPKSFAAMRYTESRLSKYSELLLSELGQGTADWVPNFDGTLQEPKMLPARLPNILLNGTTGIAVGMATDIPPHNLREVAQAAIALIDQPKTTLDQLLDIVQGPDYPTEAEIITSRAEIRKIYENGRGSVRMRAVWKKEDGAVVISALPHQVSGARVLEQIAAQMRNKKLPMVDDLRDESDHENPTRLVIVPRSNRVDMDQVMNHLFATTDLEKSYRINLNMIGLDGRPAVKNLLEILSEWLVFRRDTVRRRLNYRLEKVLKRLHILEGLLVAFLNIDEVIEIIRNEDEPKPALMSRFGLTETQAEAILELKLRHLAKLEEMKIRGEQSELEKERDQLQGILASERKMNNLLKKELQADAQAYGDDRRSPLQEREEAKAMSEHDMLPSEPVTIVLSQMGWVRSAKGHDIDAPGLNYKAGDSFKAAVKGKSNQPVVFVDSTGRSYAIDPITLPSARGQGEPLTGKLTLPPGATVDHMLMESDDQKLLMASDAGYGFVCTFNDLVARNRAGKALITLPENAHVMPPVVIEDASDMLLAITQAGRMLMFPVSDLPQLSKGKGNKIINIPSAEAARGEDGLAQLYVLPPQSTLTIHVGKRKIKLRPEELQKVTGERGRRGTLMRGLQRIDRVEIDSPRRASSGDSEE
Sequence (P20083 whole entry): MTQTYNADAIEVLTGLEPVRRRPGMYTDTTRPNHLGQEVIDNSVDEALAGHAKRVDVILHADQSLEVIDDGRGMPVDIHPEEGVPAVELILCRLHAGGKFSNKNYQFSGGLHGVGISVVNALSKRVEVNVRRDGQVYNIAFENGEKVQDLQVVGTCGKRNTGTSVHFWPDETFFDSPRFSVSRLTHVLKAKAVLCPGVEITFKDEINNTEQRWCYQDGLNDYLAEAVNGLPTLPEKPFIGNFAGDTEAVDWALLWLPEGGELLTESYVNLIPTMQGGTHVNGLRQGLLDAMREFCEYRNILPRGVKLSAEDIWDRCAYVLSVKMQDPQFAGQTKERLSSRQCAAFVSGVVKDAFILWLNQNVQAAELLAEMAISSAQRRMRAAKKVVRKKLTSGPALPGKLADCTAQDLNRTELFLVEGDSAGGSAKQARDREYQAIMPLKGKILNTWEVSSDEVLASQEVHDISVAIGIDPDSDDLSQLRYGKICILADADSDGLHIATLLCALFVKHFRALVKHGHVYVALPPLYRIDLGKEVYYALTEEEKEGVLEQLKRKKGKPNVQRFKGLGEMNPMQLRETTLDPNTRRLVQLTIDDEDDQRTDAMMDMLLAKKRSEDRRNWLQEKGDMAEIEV
Answer as the number alone; pIC50 is minus log10 of concentration in mol/L.

Query: # get_value(readout='pIC50', item= `O=C1c2cc([N+](=O)[O-])cc3cc([N+](=O)[O-])cc(c23)C(=O)N1O` )
Result: 4.70

Query: What do we get for `CN1CCN(c2c(Cl)cc3c4c(cccc24)C(=O)N(O)C3=O)CC1` ?
Result: 5.52

----------
B. subtilis RB1 measurements of MIC, listed per entry.
Give the value, in units of µg/mL, as a plain number.

Query: Any idea what MIC was measured for `O=C1c2cccc3c(Cl)c(Cl)cc(c23)C(=O)N1O` ?
Result: 1

Query: Now the same for `O=C1c2cccc3c4c(cc(c23)C(=O)N1O)OCO4`
Result: 2

Query: # repeat for `Nc1c(Br)cc2c3c(cccc13)C(=O)N(O)C2=O`
Result: 0.5

Query: Now consider `O=C1c2cccc3c(N4CCCC4)ccc(c23)C(=O)N1O` .
Result: 2

Query: Okay, and `Nc1cc2c3c(cccc3c1Cl)C(=O)N(O)C2=O` ?
Result: 4

Query: // repeat for `Cl.N[C@H]1CCN(c2c(Br)cc3c4c(cccc24)C(=O)N(O)C3=O)C1` and report
Result: 2
